- Experiment Summary: Summary of the strongest expressions over the administration routes
- Experimental Context: strongest level of the three administrations

{"Compound": "CC/C=C\\C/C=C\\C/C=C\\C/C=C\\C/C=C\\CCCC(=O)OCCCCCCOP(=O)(NCCCN1CCN(CCCN(CCCCCCCCCCCC)CCCCCCCCCCCC)CC1)OCCCCCCOC(=O)CCC/C=C\\C/C=C\\C/C=C\\C/C=C\\C/C=C\\CC [PL60]", "Summary of the strongest expressions": "C (C: ≥0.1 and <1)"}
{"Compound": "CCCCCCCCCCCCN(CCCCCCCCCCCC)CCCN1CCN(CCCNP(=O)(OCCC(C)CCCC(C)CCCC(C)CCCC(C)C)OCCC(C)CCCC(C)CCCC(C)CCCC(C)C)CC1 (stereo not drawn) [PL95]", "Summary of the strongest expressions": "A (A: ≥2)"}
{"Compound": "CCCCC/C=C\\C/C=C\\CCCCCCCCOP(=O)(NCCCN1CCN(CCCN(CCCCCCCCCCCC)CCCCCCCCCCCC)CC1)OCCCCCCCC/C=C\\C/C=C\\CCCCC [PL14]", "Summary of the strongest expressions": "A (A: ≥2)"}
{"Compound": "CCCCCCCCC(CCCCCC)CNCCCN1CCN(CCCNP(=O)(OCC(CCCCCC)CCCCCCCC)OCC(CCCCCC)CCCCCCCC)CC1 (stereo not drawn) [PL45]", "Summary of the strongest expressions": "C (C: ≥0.1 and <1)"}
{"Compound": "CCCCCCCCCCCCN(CCCCCCCCCCCC)CCCN1CCN(CCCNP(=O)(OCC(CCCCCC)CCCCCCCC)OCC(CCCCCC)CCCCCCCC)CC1 (stereo not drawn) [PL33]", "Summary of the strongest expressions": "A (A: ≥2)"}
{"Compound": "CCCCCCCCCCCCN(CCCCCCCCCCCC)CCCN1CCN(CCCNP(=O)(OCCCCCCOC(=O)C(CC)CCCCCC)OCCCCCCOC(=O)C(CC)CCCCCC)CC1 (stereo not drawn) [PL54]", "Summary of the strongest expressions": "A (A: ≥2)"}
